tested.target: full-length HAQ STING (Homo sapiens, UniProt Q86WV6, G230A/H232R/R293Q/R71H)
Construct: AviTag (after GG linker) (C); HRV3C cleavage site (after GS linker) (C); HIS8 (C); made in house; host or cells: Trichoplusia ni (Hi-Five) insect cells infected with baculovirus (virus generated and amplified in Sf21 cells); used as a washed membrane preparation
Sequence (Q86WV6 with tags, fused parts or gaps R71H/G230A/H232R/R293Q): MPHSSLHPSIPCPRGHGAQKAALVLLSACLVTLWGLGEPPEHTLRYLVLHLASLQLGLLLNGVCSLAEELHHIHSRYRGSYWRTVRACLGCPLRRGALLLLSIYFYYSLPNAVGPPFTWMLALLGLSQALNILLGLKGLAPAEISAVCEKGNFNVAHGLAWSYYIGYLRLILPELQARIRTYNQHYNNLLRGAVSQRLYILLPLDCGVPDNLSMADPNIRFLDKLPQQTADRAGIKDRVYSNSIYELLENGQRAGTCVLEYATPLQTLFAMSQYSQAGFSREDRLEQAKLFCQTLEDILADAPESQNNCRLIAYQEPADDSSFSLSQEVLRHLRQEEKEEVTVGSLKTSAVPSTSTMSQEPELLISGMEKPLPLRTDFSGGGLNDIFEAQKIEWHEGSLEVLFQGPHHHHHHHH
protocol.details: 3H-cGAMP filtration binding assay (HAQ STING)
test.parameters: competition with tritiated cGAMP, HAQ STING membrane
experimental.readout: EC50 (nM)

// solved cases for EC50 follow
smiles.string | tested.target | readout.unit | EC50
COc1cc2sc(C(=O)CCC#N)cc2cc1CCCc1cc2cc(C(=O)CCC(=O)O)sc2cc1OC | full-length HAQ STING (Homo sapiens, UniProt Q86WV6, G230A/H232R/R293Q/R71H) | nM | 17800
COc1cc2sc(C(=O)CC(C)(C)C(=O)O)cc2c(F)c1OCCCOc1c(OC)cc2sc(C(=O)CC(C)(C)C(=O)O)cc2c1F | full-length HAQ STING (Homo sapiens, UniProt Q86WV6, G230A/H232R/R293Q/R71H) | nM | 2

I: COc1cc2sc(C(=O)CCC(=O)O)cc2cc1CCCOc1nc2cc(C(=O)C[C@H](C)C(=O)O)sc2cc1OC
II: COc1cc2cc(C(=O)CCC(=O)O)sc2cc1OCCCOc1c(OC)cc2sc(C(=O)CCC(=O)O)cc2c1F
III: COc1cc2sc(C(=O)C[C@H](C)C(=O)O)cc2cc1OCCCOc1c(OC)cc2sc(C(=O)C[C@H](C)C(=O)O)cc2c1Cl
IV: COc1cc2sc(C(=O)CCC(=O)O)cc2cc1OCCOc1cc2cc(C(=O)CCC(=O)O)sc2cc1OC
Enquiry: Kindly order the items shown according to EC50, from the highest value down. Field: ranking. Enter the labels in the order requested.
Return: IV, I, III, II

====

tested.target: full-length HAQ STING (Homo sapiens, UniProt Q86WV6, G230A/H232R/R293Q/R71H)
Construct: AviTag (after GG linker) (C); HRV3C cleavage site (after GS linker) (C); HIS8 (C); made in house; host or cells: Trichoplusia ni (Hi-Five) insect cells infected with baculovirus (virus generated and amplified in Sf21 cells); used as a washed membrane preparation
protocol.details: 3H-cGAMP filtration binding assay (HAQ STING)
test.parameters: competition with tritiated cGAMP, HAQ STING membrane
Description: The ability of compounds to bind STING is quantified by the ability to compete with tritiated cGAMP ligand for human STING receptor membrane using a radioactive filter-binding assay. […] The ability of compounds to bind STING is quantified by their ability to compete with tritiated cGAMP ligand for human STING receptor membrane using a radioactive filter-binding assay. […]
experimental.readout: EC50 (nM)

// solved cases for EC50 follow
compound | endpoint.result
COc1cc2cc(C(=O)C[C@H](C)C(=O)O)sc2cc1OCCCOc1c(OC)cc2sc(C(=O)[C@@H]3CC[C@H]3C(=O)O)cc2c1F | 9
COc1cc2sc(C(=O)C[C@H](C)C(=O)O)cc2c(F)c1OCC(C)COc1c(OC)cc2sc(C(=O)C[C@H](C)C(=O)O)cc2c1F | 1
COc1cc2sc(C(=O)C[C@H](C)C(=O)O)cc2cc1OCCCCCOc1cc2sc(C(=O)C[C@H](C)C(=O)O)cc2cc1OC | 467
COc1cc2sc(CC[C@H](C)C(=O)O)cc2c(F)c1OCCCOc1c(O)cc2sc(C(=O)C[C@H](C)C(=O)O)cc2c1Cl | 133
COc1cc2sc(C(=O)C[C@H](C)C(=O)O)cc2cc1NCCCOc1c(OC)cc2sc(C(=O)C[C@H](C)C(=O)O)cc2c1F | 1
COc1cc2sc(C(=O)C[C@H](C)C(=O)O)cc2cc1OCCOc1cc2cc(C(=O)C[C@H](C)C(=O)O)sc2cc1OC | 22

P: COc1cc2sc(C(=O)C[C@H](C)C(=O)O)cc2cc1OCCCOc1c(O)cc2sc(C(=O)C[C@H](C)C(=O)O)cc2c1F
Q: COc1cc2sc(C(=O)CCC(=O)O)cc2c(F)c1OCCCCCOc1c(OC)cc2sc(C(=O)CCC(=O)O)cc2c1F
Enquiry: EC50 comparison. Which is larger, P or Q ? When you have decided, please share the label of that item.
Return: Q

A: COc1cc2sc(C(=O)C[C@H](C)C(=O)O)cc2c(F)c1OCCCOc1c(OC)cc2sc(C(=O)[C@@H]3CC[C@H]3C(=O)O)cc2c1F [Example 98]
B: COc1cc2sc(C(=O)C[C@H](C)C(=O)O)cc2c(F)c1CCCOc1c(OC)cc2sc(CC[C@H](C)C(=O)O)cc2c1F
Enquiry: EC50 comparison. Which is larger, A or B ? When you have decided, please share the label of that item.
Return: B
(B: 39 nM, A: 1 nM)
